Test system: NZOV9
Test: Cellular growth inhibition (3H-thymidine incorporation)
Assay type: cell-based
Conditions: Homo sapiens, five days incubation, 3H-thymidine over the last 6 hrs, read-out: Cell IC50* NZOV9
pIC50: −log10 of the molar value.
Experimental endpoint: pIC50

Example results:
[
  {
    "Chemical string": "COc1ccncc1Nc1nc(N2CCOCC2)nc(-n2c(C(F)F)nc3c(OC)cccc32)n1",
    "pIC50": "> 7.00"
  },
  {
    "Chemical string": "COc1ccc(Nc2nc(N3CCOCC3)nc(-n3c(C(F)F)nc4c(OC)cccc43)n2)nn1",
    "pIC50": "6.00 to 7.00"
  },
  {
    "Chemical string": "FC(F)c1nc2ccccc2n1-c1nc(Nc2ccncn2)nc(N2CCOCC2)n1",
    "pIC50": "6.00 to 7.00"
  }
]

Let us move to another entry and its pIC50.
Name the reported pIC50 value associated with the molecule COc1cccc2c1nc(C(F)F)n2-c1nc(Nc2ccc(F)nc2)nc(N2CCOCC2)n1
> 7.00

---

Target: p110β/p85 (Homo sapiens)
Sequence (P42338 whole entry, species assumed): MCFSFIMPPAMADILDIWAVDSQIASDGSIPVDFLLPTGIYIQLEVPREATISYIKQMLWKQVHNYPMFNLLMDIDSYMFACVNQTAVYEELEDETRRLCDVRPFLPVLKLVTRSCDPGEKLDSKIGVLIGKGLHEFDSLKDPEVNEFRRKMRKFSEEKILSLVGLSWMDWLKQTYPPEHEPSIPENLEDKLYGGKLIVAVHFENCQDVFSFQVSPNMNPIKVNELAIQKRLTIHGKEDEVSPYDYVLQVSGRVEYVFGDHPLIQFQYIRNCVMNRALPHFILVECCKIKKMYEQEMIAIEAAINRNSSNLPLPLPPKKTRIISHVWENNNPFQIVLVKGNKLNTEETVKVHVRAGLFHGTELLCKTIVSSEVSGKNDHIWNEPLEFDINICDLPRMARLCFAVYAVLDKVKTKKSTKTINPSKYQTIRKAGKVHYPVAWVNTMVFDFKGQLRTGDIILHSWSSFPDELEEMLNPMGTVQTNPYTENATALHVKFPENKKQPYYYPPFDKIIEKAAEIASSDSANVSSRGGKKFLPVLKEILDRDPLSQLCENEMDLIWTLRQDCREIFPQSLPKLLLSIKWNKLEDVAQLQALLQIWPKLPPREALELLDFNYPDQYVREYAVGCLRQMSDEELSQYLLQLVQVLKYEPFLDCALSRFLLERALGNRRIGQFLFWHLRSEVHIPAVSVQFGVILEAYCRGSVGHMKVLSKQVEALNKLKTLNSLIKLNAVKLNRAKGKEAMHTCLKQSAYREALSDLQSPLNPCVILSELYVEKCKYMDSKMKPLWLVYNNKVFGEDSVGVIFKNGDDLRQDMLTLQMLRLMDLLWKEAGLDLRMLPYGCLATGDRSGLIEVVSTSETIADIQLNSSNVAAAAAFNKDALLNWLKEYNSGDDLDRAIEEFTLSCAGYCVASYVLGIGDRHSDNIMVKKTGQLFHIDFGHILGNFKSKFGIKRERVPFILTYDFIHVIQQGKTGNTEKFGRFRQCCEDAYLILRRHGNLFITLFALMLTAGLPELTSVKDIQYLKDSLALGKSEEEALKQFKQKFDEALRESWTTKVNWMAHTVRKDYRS
Sequence (P27986 whole entry partner, species assumed): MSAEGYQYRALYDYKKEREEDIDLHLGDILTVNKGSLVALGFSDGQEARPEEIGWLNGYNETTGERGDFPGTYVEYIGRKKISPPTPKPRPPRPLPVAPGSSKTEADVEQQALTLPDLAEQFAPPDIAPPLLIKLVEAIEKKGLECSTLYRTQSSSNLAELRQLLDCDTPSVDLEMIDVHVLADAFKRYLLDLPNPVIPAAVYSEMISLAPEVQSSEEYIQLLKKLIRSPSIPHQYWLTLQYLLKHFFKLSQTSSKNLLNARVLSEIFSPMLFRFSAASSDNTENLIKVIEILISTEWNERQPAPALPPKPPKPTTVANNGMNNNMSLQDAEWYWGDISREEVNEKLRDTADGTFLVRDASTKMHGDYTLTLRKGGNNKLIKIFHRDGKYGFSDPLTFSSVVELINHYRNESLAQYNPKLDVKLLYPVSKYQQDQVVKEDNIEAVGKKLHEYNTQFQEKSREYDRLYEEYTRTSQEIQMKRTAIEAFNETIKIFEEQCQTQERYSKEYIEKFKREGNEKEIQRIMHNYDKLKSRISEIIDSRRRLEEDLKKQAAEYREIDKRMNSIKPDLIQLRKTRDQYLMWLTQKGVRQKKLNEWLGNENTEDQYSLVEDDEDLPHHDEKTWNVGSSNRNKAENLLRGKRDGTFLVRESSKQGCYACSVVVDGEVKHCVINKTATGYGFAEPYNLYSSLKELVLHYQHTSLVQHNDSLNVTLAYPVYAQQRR
Experiment: Inhibition of isolated enzyme (lipid kinase assay, [γ33P]ATP, TLC)
Conditions: recombinant enzyme, 100 μM ATP, 1 hr room temperature, average of two experiments
Catalogue of compounds with associated IC50

Consider the reported IC50 for these compounds:
[
  {
    "Chemical string": "FC(F)c1nc2ccccc2n1-c1nc(Oc2ccccc2)nc(N2CCOCC2)n1",
    "Assayed target": "p110β/p85 (Homo sapiens)",
    "Experimental endpoint": "IC50",
    "Recorded value": "> 10000 nM"
  },
  {
    "Chemical string": "COc1ccc(Nc2nc(N3CCOCC3)nc(-n3c(C(F)F)nc4c(OC)cccc43)n2)cn1",
    "Assayed target": "p110β/p85 (Homo sapiens)",
    "Experimental endpoint": "IC50",
    "Recorded value": "< 100 nM"
  },
  {
    "Chemical string": "CN(Cc1ccccc1)c1nc(N2CCOCC2)nc(-n2c(C(F)F)nc3ccccc32)n1",
    "Assayed target": "p110β/p85 (Homo sapiens)",
    "Experimental endpoint": "IC50",
    "Recorded value": "100 to 1000 nM"
  }
]

Turning now to a further record.
Tell me the measured IC50 of COc1cccc2c1nc(C(F)F)n2-c1nc(Nc2cccnn2)nc(N2CCOCC2)n1 , please.
100 to 1000 nM

---

Experimental endpoint: melting point

Worked cases, answers included:
[
  {
    "Compound": "COc1cccc2c1nc(C(F)F)n2-c1nc(N2CCOCC2)nc2c1ncn2-c1cncnc1 [Example 62]",
    "Experimental endpoint": "melting point",
    "Recorded value": "238 to 240 °C"
  },
  {
    "Compound": "CN(Cc1ccccc1)c1nc(N2CCOCC2)nc(-n2c(C(F)F)nc3ccccc32)n1 [Example 9]",
    "Experimental endpoint": "melting point",
    "Recorded value": "147 to 150 °C"
  }
]

So what does the record say about melting point for Cn1cc(Nc2nc(N3CCOCC3)nc(-n3c(C(F)F)nc4ccccc43)n2)cn1 [Example 25] ?
225 to 226 °C

What value of melting point has been recorded for this entry: COc1ncc(-c2cc(N3CCOCC3)nc(-n3c(C(F)F)nc4c(OC)cccc43)n2)cn1 [Example 57]
238 to 241 °C

I'd like to know its melting point. The compound in question is COc1cccc2c1nc(C(F)F)n2-c1nc(Nc2ccc(F)nc2)nc(N2CCOCC2)n1 [Example 29]
261 to 263 °C

# get_value(readout='melting point', item= FC(F)c1nc2ccccc2n1-c1nc(NCc2ccncc2)nc(N2CCOCC2)n1 [Example 15] )
188 to 190 °C

May I ask what melting point has been recorded for COc1cccc2c1nc(C(F)F)n2-c1nc(Nc2cnc(N(C)CCCN(C)C)nc2)nc(N2CCOCC2)n1 [Example 43] ?
97 to 99 °C

Given the entry COc1cccc2c1nc(C(F)F)n2-c1nc(Nc2cnc(Cl)nc2)nc(N2CCOCC2)n1 [Example 41] , report its measured melting point.
295 °C (dec.)

# get_value(readout='melting point', item= FC(F)c1nc2ccccc2n1-c1nc(Nc2cccnn2)nc(N2CCOCC2)n1 [Example 23] )
271 to 273 °C

Data provenance: patent US8486939B2
